Measured TGI values are reported for all entries that follow.
- Tested on: A549 NSCLC
- Measurement Description: NCI tumour cell line growth inhibition, 48 h
Assay Metric: TGI (µM)

COc1ccc2c(c1)C(=O)c1c-2c(N2CCN(C(=O)CCNCCNCCO)CC2)nc2ccccc12	28
CCc1ccc(/C=C/C(=O)C2CN(CC)CCC2(O)/C=C/c2ccc(CC)cc2)cc1 (stereo not given)	20

###

- Tested on: SF-268 CNS
- Measurement Description: NCI tumour cell line growth inhibition, 48 h
Measured TGI values are reported for all entries that follow.
Assay Metric: TGI

O=C(N/N=C/c1ccc(Cl)cc1)c1ccccc1Nc1ccccc1C(=O)N/N=C/c1ccc(Cl)cc1	> 100 µM
CSc1nc2nc(C(O)C(O)C(O)CO)cnc2c(=O)[nH]1 (stereo unspecified)	> 100 µM
O=C(O)c1cn(C2CC2)c2cc(N3CCN(Cc4ccc5ccccc5c4O)CC3)c(F)cc2c1=O	> 100 µM
CSc1ccc(/C=C2\N=C(c3ccccc3)N(/N=C3\C(=O)Nc4ccccc43)C2=O)cc1	> 100 µM
OCCCCCCCCCCCOc1ccc(C2OCC3(CC=CCC3)CO2)cc1 (stereo unspecified)	40.9 µM
O=C(NC1C(=O)NNC1c1ccccc1Cl)c1ccccc1 (stereo unspecified)	> 100 µM
